Values from paper PMC8662641

# target or test system: BTK-1h (Homo sapiens)
# Construct: The BTK kinase domain was diluted to 2 μM in the buffer, and 2 μM 1h was added; made in house
# procedure summary: High-throughput screening with 1h-labeled BTK
# Type: binding
# condition label: Dataset S2A; 200 μM compound, BTK-1h, 32 °C, 10 min
metric: FI (BTK-1h)/FI (BTK-1h+Inhibitor) at 620 nm

| compound | quantitative result |
| --- | --- |
| COc1ccc2[nH]cc(/C=C3\C(=O)Nc4ccc(NC(=O)CCN5CCCCC5)cc43)c2c1 [PCM-0216653-001] | 0.9946 |
| CCOC(=O)c1ccc(N2NC(=O)/C(=C/c3ccc([N+](=O)[O-])o3)C2=O)cc1 [PCM-0095807-002] | 1.077 |
| C=CC(=O)N1CCC(Oc2cc3c(Nc4ccc(Cl)c(Cl)c4F)ncnc3cc2OC)CC1 [PCM-0215416-001] | 1.082 |
| O=C(Nc1ccc(OC(F)(F)F)cc1)c1sccc1NCc1ccnc2ccccc12 [PCM-0094951-002] | 1.045 |
| Cc1c[nH]c(/C=C2\C(=O)Nc3ccccc32)c1CCC(=O)O [PCM-0216652-001] | 1.061 |
| Cc1cc(N2CCOCC2)cc2[nH]c(-c3c(NC[C@@H](O)c4cccc(Cl)c4)cc[nH]c3=O)nc12 [PCM-0214699-001] | 1.093 |
| COC[C@H]1C[C@@H](c2ncc(-c3ccc4c(c3)COc3cc5c(ccc6[nH]c([C@@H]7CC[C@H](C)N7C(=O)[C@@H](NC(=O)OC)C(C)C)nc65)cc3-4)[nH]2)N(C(=O)[C@H](NC(=O)OC)c2ccccc2)C1 [PCM-0214920-001] | 1.025 |

---

# target or test system: BTK-1h (Homo sapiens)
# Construct: The BTK kinase domain was diluted to 2 μM in the buffer, and 2 μM 1h was added; made in house
# procedure summary: High-throughput screening with 1h-labeled BTK
# Type: binding
# condition label: Dataset S2A; 200 μM compound, BTK-1h, 32 °C, 10 min
Catalogue of FI (BTK-1h)/FI (BTK-1h+Inhibitor) at 620 nm readings, one per entry.
metric: FI (BTK-1h)/FI (BTK-1h+Inhibitor) at 620 nm

| compound | quantitative result |
| --- | --- |
| CC(=O)O/N=C1/C(c2c(O)[nH]c3cc(Br)ccc23)=Nc2ccccc21 [PCM-0215536-001] | 1.019 |
| COc1ccc(-c2nc(-c3cc(C(F)(F)F)cc(C(F)(F)F)c3)n(Cc3ccc(C(N)=O)cc3)c2-c2ccc(OC)cc2)cc1 [PCM-0215748-001] | 1.0289 |
| C1=C/COCc2cc(ccc2OCCN2CCCC2)Nc2nccc(n2)-c2cccc(c2)COC/1 [PCM-0215268-001] | 1.2233 |
| COc1ccc(CC(=O)Nc2nc3c(s2)CCc2ccccc2-3)cc1OC [PCM-0215753-001] | 1.022 |
| CNCc1ccc(C)c(NC(=O)c2ccc(Nc3nc(-c4ccccc4)c4ccccc4n3)cc2)c1 [PCM-0095748-002] | 1.088 |
| Cl.Cl.Fc1ccc(C(c2ccc(F)cc2)N2CCN(C/C=C/c3ccccc3)CC2)cc1 [PCM-0065210-003] | 1.036 |
| CC(=O)Nc1nc(-c2cccc(NS(=O)(=O)c3cccc4c(N(C)C)cccc34)c2)cs1 [PCM-0215679-001] | 1.033 |
| CCCCCC/C=C\CCCCCCCc1cccc(O)c1C(=O)O [PCM-0216327-001] | 1.308 |
| C=CC(=O)Nc1cccc(Nc2nc(Nc3ccc(NC4CN(CCF)C4)cc3OC)ncc2C(F)(F)F)c1 [PCM-0215208-001] | 1.028 |
| CN(Cc1ccc(C(C)(C)C)cc1)Cc1cccc2ccccc12.Cl [PCM-0086068-001] | 1.029 |
| O=c1cc(-c2ccc(O)c(O)c2)oc2cc(O)cc(O)c12 [PCM-0086559-001] | 1.0702 |
| Cl[Te]1(Cl)(Cl)OCCO1.N [PCM-0215721-001] | 1.038 |
| CO[C@@H](C(=O)N1Cc2[nH]nc(NC(=O)c3ccc(N4CCN(C)CC4)cc3)c2C1)c1ccccc1 [PCM-0094888-003] | 1.3808 |
| COCCOC(=O)C1=C(C)NC(C)=C(C(=O)OC/C=C/c2ccccc2)C1c1cccc([N+](=O)[O-])c1 (stereo not shown) [PCM-0065102-001] | 1.035 |
| Cc1cc(O)c(-c2ccc([C@@H](C)CN)cc2)c2c1[nH]c(=O)c1sccc12 [PCM-0215772-001] | 1.063 |
| CC1=C(O)C(=O)C=C2C1=CC=C1[C@@]2(C)CC[C@@]2(C)[C@@H]3C[C@](C)(C(=O)O)CC[C@]3(C)CC[C@]12C [PCM-0214611-001] | 1.014 |
| CCOC(=O)c1ccc(NC(=O)O[C@H]2[C@H](OC(=O)Nc3ccc4c(c3)OCO4)[C@@H](OC(=O)Nc3ccc4c(c3)OCO4)[C@@H](OC)O[C@@H]2CO)cc1 [PCM-0215463-001] | 1.02 |
| COc1cc(N2CCC(N(C)C)CC2)ccc1Nc1ncc(Cl)c(Nc2ccccc2P(C)(C)=O)n1 [PCM-0215177-001] | 1.158 |
| Cc1c(C(=O)Nc2ccc(Oc3ccnc4[nH]cc(-c5ccccc5)c34)c(F)c2)c(=O)n(-c2ccc(F)cc2)n1C [PCM-0215493-001] | 1.0338 |
| CC(C)=CCc1cc2c(cc1O)O[C@H](c1ccc(O)cc1)CC2=O [PCM-0216180-001] | 1.015 |
| Cl.O=C1Cc2cc(CCN3CCN(c4nsc5ccccc45)CC3)c(Cl)cc2N1 [PCM-0065598-003] | 1.055 |
| O=C(NC(NC(=S)Nc1ccc(F)c([N+](=O)[O-])c1)C(Cl)(Cl)Cl)C(c1ccccc1)c1ccccc1 (stereo not shown) [PCM-0215199-001] | 1.025 |
| O=C(O)c1cc(O)c2c(c1)[C@@H]([C@H]1c3cc(C(=O)O)cc(O)c3C(=O)c3c(O[C@@H]4O[C@H](CO)[C@@H](O)[C@H](O)[C@H]4O)cccc31)c1cccc(O[C@@H]3O[C@H](CO)[C@@H](O)[C@H](O)[C@H]3O)c1C2=O [PCM-0086913-003, Sennoside B] | 1.82 |
| Cc1ccccc1C(=O)Nc1ccc(C(=O)N2CCCC(N(C)C)c3ccccc32)cc1 (stereo not shown) [PCM-0095424-002] | 1.021 |
| COc1ccc2cc3[n+](cc2c1O)CCc1cc2c(cc1-3)OCO2.[Cl-] [PCM-0216489-001] | 0.9862 |

---

Catalogue of FI (BTK-1h)/FI (BTK-1h+Inhibitor) at 620 nm readings, one per entry.
# target or test system: BTK-1h (Homo sapiens)
# Construct: The BTK kinase domain was diluted to 2 μM in the buffer, and 2 μM 1h was added; made in house
# procedure summary: High-throughput screening with 1h-labeled BTK
# Assay type: binding
# condition label: Dataset S2A; 200 μM compound, BTK-1h, 32 °C, 10 min
metric: FI (BTK-1h)/FI (BTK-1h+Inhibitor) at 620 nm

| smiles repr | quantitative result |
| --- | --- |
| CC(C)(C)c1cc(/C=C(\C#N)C(N)=S)cc(C(C)(C)C)c1O | 1.037 |
| COc1cccc(-n2c(=O)[nH]c3cc(Cl)n(-c4ccc(-c5cccc(OC)c5O)cc4)c3c2=O)c1 | 1.0396 |
| N#CC(C#N)=Cc1ccc(O)c(O)c1 | 1.013 |
| CS(=O)(=O)O.O=C(Nc1cccc(Cl)c1)Nc1ncc(CCNc2ncnc3ccsc23)s1 | 1.085 |

---

Catalogue of FI (650)/FI (620) readings, one per entry.
# target or test system: BTK-1h (Homo sapiens, UniProt Q06187)
# Construct: The BTK kinase domain was diluted to 2 μM in the buffer, and 2 μM 1h was added; made in house
# Sequence (Q06187 402-655): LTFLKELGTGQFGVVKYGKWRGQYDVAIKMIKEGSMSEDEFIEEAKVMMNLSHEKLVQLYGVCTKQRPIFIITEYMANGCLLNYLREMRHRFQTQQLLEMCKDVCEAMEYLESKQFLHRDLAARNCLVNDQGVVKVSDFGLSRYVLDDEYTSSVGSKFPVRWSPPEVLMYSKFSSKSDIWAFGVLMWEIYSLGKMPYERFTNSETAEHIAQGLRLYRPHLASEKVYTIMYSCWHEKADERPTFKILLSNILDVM
# procedure summary: High-throughput screening with 1h-labeled BTK
# Type: binding
# condition label: Dataset S2A; 200 μM compound, BTK-1h, 32 °C, 10 min

| compound | FI (650)/FI (620) |
| --- | --- |
| COS(=O)(=O)[O-].C[n+]1c2ccccc2nc2ccccc21 [PCM-0216061-001] | 1.059 |
| CC(C)N1CCN(Cc2cnc(-c3cc(-c4cccc5[nH]ccc45)cc4[nH]ncc34)o2)CC1 [PCM-0213407-002] | 0.9167 |
| O=C(c1ccccc1O)c1[nH]c(Cl)c(Cl)c1-n1c(C(=O)c2ccccc2O)cc(Cl)c1Cl [PCM-0215850-001] | 1.151 |
| Cc1ccc(NC(=O)Nc2cc(C(F)(F)F)ccc2F)cc1Nc1ccc2c(c1)NC(=O)/C2=C\c1ccc[nH]1 [PCM-0215372-001] | 1.5507 |
| CNC(=O)c1cc(Oc2ccc(NC(=O)Nc3cc(C(C)(C)C)nn3-c3ccc4ncccc4c3)c(F)c2)ccn1 [PCM-0095514-002] | 1.156 |
| Cl.Cl.Cl.O[C@@H](COc1cccc2ncccc12)CN1CCN(C2c3ccccc3[C@@H]3[C@H](c4ccccc42)C3(F)F)CC1 (some centres unmarked) [PCM-0095161-003] | 0.9335 |
| Cn1cc(-c2[nH]c3cc(NC(=O)[C@H](N)C4CCCCC4)cc4c3c2C=NNC4=O)cn1 [PCM-0095372-002] | 2.04 |
| NCC(=O)Nc1ccc(-n2nc(C(F)(F)F)cc2-c2ccc3c(ccc4ccccc43)c2)cc1 [PCM-0094886-003] | 1.037 |
| COc1c(-c2ccc3cc(NS(C)(=O)=O)ccc3c2)cc(-n2ccc(=O)[nH]c2=O)cc1C(C)(C)C [PCM-0216081-001] | 0.9511 |
| Cc1cnc(Nc2ccc(F)cc2Cl)nc1-c1c[nH]c(C(=O)N[C@H](CO)c2cccc(Cl)c2)c1 [PCM-0213398-002] | 1.007 |
| CC(C)=CCC/C(C)=C/Cc1c(O)c(CC=C(C)C)c2c(c1O)C(=O)C1=C[C@@H]3C[C@H]4C(C)(C)O[C@@](C/C=C(/C)C(=O)O)(C3=O)[C@@]14O2 [PCM-0216347-001] | 1.074 |
| CC(C)(C)c1cc(NC(=O)Nc2ccc(Oc3ccnc4[nH]c(=O)cnc34)cc2F)n(-c2ccccc2)n1 [PCM-0215780-001] | 1.123 |
| CCOC(=O)c1ccc(N2NC(=O)/C(=C/c3ccc([N+](=O)[O-])o3)C2=O)cc1 [PCM-0095807-002] | 2.739 |
| CCc1cccc(CC)c1NC(=O)N1Cc2[nH]nc(NC(=O)c3ccc(N4CCN(C)CC4)cc3)c2C1 [PCM-0095127-002] | 1.117 |
